This collection of values is drawn from the RNAGym collection of RNA variant scans (doi:10.7554/elife.80360).

B1: CPEB3 Ribozyme (parent)
chain: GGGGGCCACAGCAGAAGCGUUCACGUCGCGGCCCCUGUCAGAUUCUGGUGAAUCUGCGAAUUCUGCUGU

- Variants of: B1
- Procedure Details: self-cleavage, relative activity (ratio to wild type); higher = more cleavage; co-transcriptional
Quick rule for you: self-cleavage at 0.6 or higher means condition met, lower means condition not met.

Use these answered entries as a reference point.
GGGGGCCACAGCACAAGCGUUCACGUCGCGGCCCCUGUCCGAUUCUGGUGAAUCUGCGAAUUCUGCUGU [G14C A40C] : condition not met
GGGGGCCACAGCAGAAGCGUUCACGUCGCGUCUCCUGUCAGAUUCUGGUGAAUCUGCGAAUUCUGCUGU [G31U C33U] : condition not met

Reported self-cleavage at or above 0.6? GGGGGCCACAGCAGAAGCGUUCACGUCGCGGCCCCUGUUAGAUUCUGGUGAAUCUGCGAAUUGUGCUGU [C39U C63G] condition not met

Likewise for GGGGGCCACAGAAGAAGCGUUCACGUCGCGGCCCCUGUCGGAUUCUGGUGAAUCUGCGAAUUCUGCUGU [C12A A40G] ? condition not met

Likewise for GGGGGCCACAGCAGAAGCGUUCACGUCGCGGUCCCUGUCAGAUUCUGGUGAAUCUGCGAAUUCUCCUGU [C32U G65C] ? condition met

Likewise for GGGGGCCGCAGCAGUAGCGUUCACGUCGCGGCCCCUGUCAGAUUCUGGUGAAUCUGCGAAUUCUGCUGU [A8G A15U] ? condition not met

Likewise for GGGGGCAGCAGCAGAAGCGUUCACGUCGCGGCCCCUGUCAGAUUCUGGUGAAUCUGCGAAUUCUGCUGU [C7A A8G] ? condition met

Likewise for GGGGGCCACAGCAGAAGCGUUCACGUCGCGGUCCCUGUCAGAUUCUGGUGAUUCUGCGAAUUCUGCUGU [C32U A52U] ? condition met

Likewise for GGGCGCCACAGCAGAAGCGUUCACGUCGCGGCCCCUGUCAGAUUCUGGUGAAUCCGCGAAUUCUGCUGU [G4C U55C] ? condition not met

Likewise for GGGGGCCACAGCAGAAGCGUUCACGUCGCGGCCCCUGUCAGAUUCUGGUGAAUCUACGAAUUCAGCUGU [G56A U64A] ? condition met

Likewise for GGGGGCCACAGCAGAAGCGUUCACGUCGCGGCUCCUGUCAGAUUAUGGUGAAUCUGCGAAUUCUGCUGU [C33U C45A] ? condition met

Likewise for GGUGGCCACAGCAGAAGCGUUCACGUCGCGGCCCCUGUCAGAUUCUGGAGAAUCUGCGAAUUCUGCUGU [G3U U49A] ? condition not met

Likewise for GGGGGCCACAGCAGAAGCGUUCACGUCGCUGCCCCUGUCAGAUUCUGGUGAAUUUGCGAAUUCUGCUGU [G30U C54U] ? condition not met
